Assign shrunken log2 fold change to each entry below.
System: Escherichia coli TOP10;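 also: peptides expressed intracellularly from a pBAD plasmid library in pooled LB shake-flask culture, induced with 0.3% L-arabinose, DNA abundance read by NGS, three biological replicates, DESeq2 with apeglm shrinkage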
TEST_NAME: shrunken log2 fold change of peptide-encoding DNA abundance (4.5 h post-induction vs induction); higher = less antimicrobial activity (less host growth inhibition)
EXPERIMENTAL_CONTEXT: time post-induction: 4.5 h; library: site-saturation at positions 5, 18, 19, 20
Answer with the value's number alone.

Determine from records and report shrunken log2 fold change for RRIRFRPPRLPRPRPRPECEPRP
0.639

Give the reported value of shrunken log2 fold change for this record: RRIRVRPPRLPRPRPRPFEAPRP
-0.193

Report measured shrunken log2 fold change; entry is RRIRSRPPRLPRPRPRPYRKPRP
-0.901

Report shrunken log2 fold change, nothing else, for this sequence: RRIRDRPPRLPRPRPRPTQCPRP
-0.0857

Specify measured shrunken log2 fold change for RRIRKRPPRLPRPRPRPQHEPRP .
0.198

Consider the sequence RRIRPRPPRLPRPRPRPYQPPRP . State its measured shrunken log2 fold change.
-0.125

State, in one line, measured shrunken log2 fold change of RRIRYRPPRLPRPRPRPSHTPRP
-1.39

Give me measured shrunken log2 fold change, please, for this sequence: RRIRDRPPRLPRPRPRPHIMPRP
-0.981

Annotate the sequence RRIRLRPPRLPRPRPRPCKVPRP with its measured shrunken log2 fold change.
0.00893

# return recorded shrunken log2 fold change for entry RRIRCRPPRLPRPRPRPSEPPRP
-0.184

Indicate the recorded shrunken log2 fold change value for this sequence: RRIRVRPPRLPRPRPRPAGFPRP
0.148

Please list shrunken log2 fold change recorded for the sequence RRIRRRPPRLPRPRPRPGQKPRP
-0.0196

Retrieve shrunken log2 fold change measured for RRIRTRPPRLPRPRPRPDQGPRP and print it.
0.23

Given the sequence RRIRPRPPRLPRPRPRPQWYPRP , write its reported shrunken log2 fold change.
-0.257

Consider the sequence RRIRDRPPRLPRPRPRPTYAPRP . State its measured shrunken log2 fold change.
0.0176

Provide measured shrunken log2 fold change value, entry: RRIRNRPPRLPRPRPRPSYFPRP
-0.699

Return shrunken log2 fold change (reported value) for this sequence: RRIRNRPPRLPRPRPRPQICPRP
-0.0199

Supply recorded shrunken log2 fold change for RRIRQRPPRLPRPRPRPVEHPRP here.
-0.00992

Supply reported shrunken log2 fold change belonging to this sequence: RRIRLRPPRLPRPRPRPIWFPRP
0.0419

Check the records and state shrunken log2 fold change for RRIRQRPPRLPRPRPRPFYCPRP
-0.314

Give shrunken log2 fold change for the following sequence: RRIRIRPPRLPRPRPRPDLAPRP
-0.169

Item RRIRIRPPRLPRPRPRPWLTPRP : provide shrunken log2 fold change
-0.096

State its shrunken log2 fold change: RRIRFRPPRLPRPRPRPMHPPRP
-0.082

Query shrunken log2 fold change for RRIRDRPPRLPRPRPRPVAMPRP
0.633

State its shrunken log2 fold change: RRIRTRPPRLPRPRPRPMWPPRP
-0.0463

Read off the recorded shrunken log2 fold change for RRIRARPPRLPRPRPRPIIFPRP
-0.323

Using the record for RRIRRRPPRLPRPRPRPVLDPRP , state its measured shrunken log2 fold change.
0.402
